experiment: yeast display, Sf9 membrane polyspecificity reagent, FACS + sequencing; frameworks hold sequencing errors
readout type: polyreactivity (PSR sort gate)

# example entries with known answers
macromolecule sequence	polyreactivity (PSR sort gate)
QVQLVESGGGLVQAGGSLRLTCAASGSTFVPYVMGWYRQAPGKERELVAVITWTGGSTYYADSVKGRFTISRDNAKNTVYLQMNSLKPEDTAVYYCAAEYSPWFYFEQYDYWGQGTQVTVSS	low polyreactivity
QVQLVESGGGLVQAGGSLRLSCAASGSICVDNAMGWYRQAPGKERELVAVITLRSGSTNYADSVKGRFTISRDNAKNTVYLQMNSLKPEDTAVYYCAADDTYHDYQRDTDDDYWGQGTQVTVSS	low polyreactivity
QVQLVESGGGLVQAGGSLRLSCAASGSIFRAYAMGWYRQAPGKERELVAAISWGGGSTSYADSVKGRFTISRDNAKNTVYLQMNSLKPEDTAVYYCNKVSFSKRRDYYWGQGTQVTVSS	high polyreactivity
QVQLVESGGGLVQAGASLRLSCAASGSIFRGNAMGWYRQAPGKERQLVAAITRSGGRTYYADSVKGRFTISRDNAKNTVYLQMISMKPEDTAVYYCAAVSSYSRYRRTYYYWGHGTQVTVSS	high polyreactivity

Now let's try a different one.
Entry "QVQLVESWGGLVQAGGSLRLSCAASGLIFKVYAMGWYRQAPGKERELVAAITYSGGSTDYADSVKGRFTISRDNAKNTVYLQMNSLKPEDTAVYYCNVEKVGHVNSYGYDYWGQGTQVTVSS" ; polyreactivity (PSR sort gate) = low polyreactivity

====

assay: yeast display, Sf9 membrane polyspecificity reagent, FACS + sequencing; frameworks hold sequencing errors
readout type: polyreactivity (PSR sort gate)

macromolecule sequence	readout type	result value
QVQLVESGGGLVQAGGSLRLSCAASGFTFSPYTMGSYRQAPGKERELVAGITSRGGSTYYADSVKGRFTISRDTAKNTVYLQMNILKPEDSAVYYCAARSPGYYRIVWYDYWGQGTQVTVSS	polyreactivity (PSR sort gate)	high polyreactivity
QVQLVESRGGLVQAGGSLRLSCAASGFTFRAYAMGWYREAPGKERELVAAISTGGGSTYYADSVKGRFTISRDNAKITVYFQMNSLKPEDTAVYYCNALPQRRYYYWGQGTHVTVSS	polyreactivity (PSR sort gate)	high polyreactivity

====

assay: yeast display, Sf9 membrane polyspecificity reagent, FACS + sequencing; frameworks hold sequencing errors

macromolecule sequence	polyreactivity (PSR sort gate)
QVQLVESGGGLVQAGGSLRLSCAASGRTFVANGMGGYRQAPGKERELVAAINYGDDTYYADSVKGRFTISRDNAKNTVYLQMNSQKPEDTAFYFLAADIIYGYEVYTYTSDYWGQGTQVTVSS	low polyreactivity
QVQLVESGGGLVQAGGSLRLSCASSGYIFSLSGMGWYRQAPGKERELVAAITGSGGGTYADSVKGRFTISRDNAKNTVYLQMISLKPEDTAVYYCAAGGYRRRFWPIYDYWGQGTQVSVSS	low polyreactivity

====

test: yeast display, Sf9 membrane polyspecificity reagent, FACS + sequencing; frameworks hold sequencing errors
readout type: polyreactivity (PSR sort gate)

# example entries with known answers
macromolecule sequence	polyreactivity (PSR sort gate)
QVQLVESGGGLVQAGGSLRLSCAASGSIFTQYAMGWYRQAPGKERELVAAISWTGGRTNYADSVKGRFTISRDTAKNTFYLQMNSLKPEDTSVYYCAATYLLRYCQGWKRMDYWGQGTQVTVSS	high polyreactivity
QVQLVESGGGIVQAGGSLRLSCAASGLIFYTYAMGWYRQAPGKEREIVAAISRRGGSTYYADSVKGRFTISRDNAKNTVYLQMNSLKPEDTAVYYCNARGGRYGTYSHYGYWGQGTQVTVSS	high polyreactivity
QVQLVESGGGLVQAGGSLRLSCAASGSTFPQNAMGWYRQAPGKERELVAAISRSGGRTYYADSVKGRFTISRDNAKNTVYLQMNILKPEDTAVYYCNAGFYQKYDYWGQGTQVTVSS	high polyreactivity
QVQLVESGGGLVQAGGSLRLSCAASGLTFANYAMGWYRQAPGKERELVAAISTWSGGSTYYADSVKGRFTISRDHAKNTVYLQMNSLKPEDTAVYYCNTDRYWGKGDYWGQGTQVTVSS	high polyreactivity
QVQLVESGGGLVQAGGSLRLSCAASGRILQWYTMGWYRQAPGKERELVAAISGGGGRTYYADSVKGRFTNSRDIAKNTVYLQMNSLKPEDTAVYYCAKRGTGVYRVDYGYWGQGTQVTVSS	high polyreactivity
QVQLVESGGGLVQAGGSLRLSCAASGRIFGSYAMGWYRQAPGKERELVAAINWRGGSTFYADSVKGRFTISRDNAKNTVYLQMNSLKPEDTAVYYCARRGYRQSGDYWGQGTEVTVSS	low polyreactivity
QVQLVESGGGLVQAGGSLRLSCAASGRIFSSYAMGWYRQAPGKERELVAAISRGGSTYYADSVKGRFTISRDNAKNTVYLQMNSLKPEDTAVYYCAAASYSYSERRYYYWGQGTQVTVSS	high polyreactivity
QVQLVESGGGLVQAGGSLRLSCAASGRIFARNAMGWYRQAPGKERELVADITSTGSTNYADSVKGRFTISRDNAMNTVYLQMNSLKPEDTAVYYCAADYYTGYVWEDYYWGQGTQVTVSS	low polyreactivity
QVQLVESGGGLVQAGGSLRLSCAASGLIFFHNGMGWYRQAPGKEREFVAVISSSGGSTYYADSVKGRFTISRDNAKNTVYLQMNSLKPEDTAVYYCAARDYSRRYGYWGQGTQVTVSS	high polyreactivity
QVQLVDSGGGLVQAGGSLRLSCAASGSNYVDYDMGWYRQAPGKERDLVAALTYSGARTYYADSVKGRFTISRDNAENTVYLQMNSLKPEDTAVYYCNAAGYPYPYRGDYDYWGQGTQVTVSS	low polyreactivity

Entry "QVQIVESGGGLVQAGGSLRFSCAASGRIFRGYDMGWYRQAPGKEREFVAAISWSGGNTYYADSVKGRFTISRDNAKNTVYLLMNSLNPEDTAVYYCAARVFGSHFYYRTRPYDYWGQGTQVTVSS" ; polyreactivity (PSR sort gate) = high polyreactivity
